Cited source: PubChem BioAssay AID1745844

System: rodent lifetime carcinogenesis bioassay, tumor incidence TD50
run-description: carcinogenic potency in animals, long-term in vivo studies, CPDB compilation (AID 1745844)
test-settings: rat; strain ACI; females; in feed; site: heart; lesion: sarcoma; dosed 121 weeks; study length 121 weeks
Activity calls are given as the source filed them. How the calls were made is not given here.
quantity: TD50

[ask] Request - read-out TD50 | tested on rodent lifetime carcinogenesis bioassay, tumor incidence TD50 | compound C[C@@H]1O[C@@H](OC[C@H]2O[C@@H](Oc3c(-c4ccc(O)c(O)c4)oc4cc(O)cc(O)c4c3=O)[C@H](O)[C@@H](O)[C@@H]2O)[C@H](O)[C@H](O)[C@H]1O
[reply] 90400 mg/kg/day (inactive)
